Target: ATPase family AAA domain-containing protein 2B (Homo sapiens)
Sequence (Q9ULI0 whole entry): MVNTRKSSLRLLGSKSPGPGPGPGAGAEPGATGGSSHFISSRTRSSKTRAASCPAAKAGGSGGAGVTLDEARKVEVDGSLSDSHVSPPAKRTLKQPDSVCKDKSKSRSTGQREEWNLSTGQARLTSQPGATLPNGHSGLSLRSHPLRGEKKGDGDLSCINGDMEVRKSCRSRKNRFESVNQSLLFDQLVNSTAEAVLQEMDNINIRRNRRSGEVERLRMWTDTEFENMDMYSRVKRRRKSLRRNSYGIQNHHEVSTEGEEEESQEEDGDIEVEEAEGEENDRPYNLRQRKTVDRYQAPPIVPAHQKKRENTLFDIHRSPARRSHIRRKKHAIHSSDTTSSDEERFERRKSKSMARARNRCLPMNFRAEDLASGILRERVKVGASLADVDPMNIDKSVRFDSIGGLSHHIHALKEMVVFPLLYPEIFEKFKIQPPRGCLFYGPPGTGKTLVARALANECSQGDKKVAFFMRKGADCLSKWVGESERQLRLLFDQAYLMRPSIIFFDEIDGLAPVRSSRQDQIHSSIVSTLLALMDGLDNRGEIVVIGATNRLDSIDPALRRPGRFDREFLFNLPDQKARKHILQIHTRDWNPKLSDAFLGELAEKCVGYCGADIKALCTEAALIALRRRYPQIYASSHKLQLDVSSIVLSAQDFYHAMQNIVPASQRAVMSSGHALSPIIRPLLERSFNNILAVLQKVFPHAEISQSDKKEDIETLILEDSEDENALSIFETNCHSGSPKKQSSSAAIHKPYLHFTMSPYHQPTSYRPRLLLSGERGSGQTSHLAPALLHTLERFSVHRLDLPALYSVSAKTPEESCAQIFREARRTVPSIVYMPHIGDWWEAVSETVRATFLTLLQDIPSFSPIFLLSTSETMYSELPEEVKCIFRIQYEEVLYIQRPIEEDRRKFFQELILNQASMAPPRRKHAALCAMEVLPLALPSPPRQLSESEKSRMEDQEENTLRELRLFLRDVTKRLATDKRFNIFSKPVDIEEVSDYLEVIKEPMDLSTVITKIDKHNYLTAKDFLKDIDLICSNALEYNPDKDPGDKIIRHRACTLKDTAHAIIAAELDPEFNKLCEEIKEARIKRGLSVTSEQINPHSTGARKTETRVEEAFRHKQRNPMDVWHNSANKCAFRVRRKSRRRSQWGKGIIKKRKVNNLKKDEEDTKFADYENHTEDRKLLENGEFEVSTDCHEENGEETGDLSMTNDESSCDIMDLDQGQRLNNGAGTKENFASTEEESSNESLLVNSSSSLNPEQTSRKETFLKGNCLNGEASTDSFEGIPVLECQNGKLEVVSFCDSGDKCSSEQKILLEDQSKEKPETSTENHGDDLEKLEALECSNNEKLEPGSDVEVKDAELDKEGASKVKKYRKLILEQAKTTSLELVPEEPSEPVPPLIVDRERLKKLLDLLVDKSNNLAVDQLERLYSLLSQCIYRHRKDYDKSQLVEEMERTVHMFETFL
Test: Binding affinity to N-terminal GST tagged human ATAD2B (953-1085 residues) expressed in Escherichia coli by ITC analysis
Details: read-out: Kd
metric-name: Kd (µM)

1 = H-SGRGKGGK(Ac)GL-OH
2 = H-SGRGK(Ac)QGGKARA-OH
stdin: Between 1 and 2 , whose measured Kd reads higher? State your choice using its label.
stdout: 1
(1: 1160 µM, 2: 42.5 µM)

Attribution: ChEMBL document CHEMBL4665884
